Recorded values, source the supplement of paper PMC13380429.

# Test system: Vero E6 infected with SARS-CoV-2
# EXPERIMENT DESCRIPTION: inhibition of SARS-CoV-2 cytopathic effect; higher = more antiviral protection, active = above 15
# ASSAY SETUP: 1 nM; 48 h
For each of the compounds below, state its inhibition of SARS-CoV-2 cytopathic effect.
Numbers only, in %.

I have 2 compounds here; please give me inhibition of SARS-CoV-2 cytopathic effect for each one.
1. CNCC(O)c1ccc(OC(=O)C(C)(C)C)c(OC(=O)C(C)(C)C)c1 (stereo not given)
2. Oc1ccc(/C=C/c2cc(O)cc(O)c2)cc1

Result block:
0.87
1.06

I have 3 compounds here; please give me inhibition of SARS-CoV-2 cytopathic effect for each one.
1. O=C(O)/C=C/c1ccc(O)cc1
2. N=C1N[C@H]2[C@H](CS[C@H]2CCCCC(=O)O)N1
3. CS(=O)(=O)c1ccc(-c2cnc(NCc3ccco3)n3cnnc23)cc1

Result block:
1: 1.32; 2: -0.5; 3: 4.45

###

For each of the molecules below, state its SARS-CoV-2 infection rate.
# System: Vero E6 infected with SARS-CoV-2
# EXPERIMENT DESCRIPTION: SARS-CoV-2 infection rate relative to infected DMSO; higher = more infection, active = 60 or less
# ASSAY SETUP: 24 h
Give bare numbers, in %.

CC[C@]12CCCN3CCc4c(n(c5ccccc45)[C@@](O)(C(=O)OC)C1)[C@@H]32 [vincamine] (10 µM) : 99
C=CC(=O)Nc1cccc(Nc2nc(Nc3ccc(Oc4ccnc(C(=O)NC)c4)cc3)ncc2F)c1 (0.833333 µM) : 110
C/C(=N\NC(=O)C(NC(=O)c1ccccc1)c1n[nH]c(=O)c2ccccc12)c1cccc(Br)c1 (stereo not drawn) (10 µM) : 98.5
CC(=O)Oc1c(C)cc(OCC(O)CNC(C)C)c(C)c1C (stereo not drawn) [metipranolol] (10 µM) : 108
CSc1ccc([C@H]2CN3CCC[C@H]3c3ccccc32)cc1 (racemic) (10 µM) : 86.5
Oc1nc(-c2ccc(C(F)(F)F)cc2)nc2c1CSCC2 (0.833333 µM) : 94

I have 2 molecules here; please give me SARS-CoV-2 infection rate for each one.
1. O=C(CCCCCCCn1cc(-c2cccnc2)nn1)Nc1ccccc1-c1ccccc1 (0.833333 µM)
2. O=C(O)c1cc(-c2ccc(F)cc2F)ccc1O [diflunisal] (10 µM)

Result block:
[114, 110]

###

# Test system: Vero E6 infected with SARS-CoV-2
# EXPERIMENT DESCRIPTION: morphology score (similarity to uninfected cells); higher = more like uninfected cells
# ASSAY SETUP: 24 h
EXPERIMENTAL READOUT: morphology score
Numbers only.

COc1cc(OC)c2c(=O)[nH]c(-c3cc(C)c(OCCO)c(C)c3)nc2c1 [apabetalone] (0.833333 µM) : 0.0872

I have 7 molecules here; please give me morphology score for each one.
1. CC1(C)S[C@@H]2[C@H](NC(=O)C(C(=O)O)c3ccccc3)C(=O)N2[C@H]1C(=O)O (stereo partly drawn) [carbenicillin] (10 µM)
2. CNc1cc(OC)c(C(=O)NC2CCN(Cc3ccccc3)C2C)cc1Cl (stereo not drawn) [nemonapride] (10 µM)
3. CC(C)Cc1ccc(C(C)C(=O)O)cc1 (stereo not drawn) [ibuprofen] (10 µM)
4. C[C@@H]1O[C@@H](O[C@H]2[C@H](Oc3cc(O)c(C(=O)CCc4ccc(O)cc4)c(O)c3)O[C@H](CO)[C@@H](O)[C@@H]2O)[C@H](O)[C@H](O)[C@H]1O [naringin-dihydrochalcone] (10 µM)
5. Oc1ncnc2[nH]ncc12 [allopurinol] (10 µM)
6. CC[C@H](C)C(=O)O[C@H]1C[C@@H](C)C=C2C=C[C@H](C)[C@H](CC[C@@H]3C[C@@H](O)CC(=O)O3)[C@H]21 [lovastatin] (10 µM)
7. Cc1nc2sccn2c(=O)c1CCN1CCC(=C(c2ccccc2)c2ccc(F)cc2)CC1 (10 µM)

Result block:
0.0766
0.642
0.0447
0.0437
-0.0914
0.0359
0.149
